Values were extracted from patent US7579356B2.

biological target: EGFR (Homo sapiens, UniProt P00533); construct: The intracellular portion of EGFR started at nucleotide 2189 (corresponding to amino acid 667) and ended at the termination codon; experiment: EGFR Kinase Assay; settings: GST-EGFR, ATP 5 μM
Sequence (P00533 669-1210 limits assumed): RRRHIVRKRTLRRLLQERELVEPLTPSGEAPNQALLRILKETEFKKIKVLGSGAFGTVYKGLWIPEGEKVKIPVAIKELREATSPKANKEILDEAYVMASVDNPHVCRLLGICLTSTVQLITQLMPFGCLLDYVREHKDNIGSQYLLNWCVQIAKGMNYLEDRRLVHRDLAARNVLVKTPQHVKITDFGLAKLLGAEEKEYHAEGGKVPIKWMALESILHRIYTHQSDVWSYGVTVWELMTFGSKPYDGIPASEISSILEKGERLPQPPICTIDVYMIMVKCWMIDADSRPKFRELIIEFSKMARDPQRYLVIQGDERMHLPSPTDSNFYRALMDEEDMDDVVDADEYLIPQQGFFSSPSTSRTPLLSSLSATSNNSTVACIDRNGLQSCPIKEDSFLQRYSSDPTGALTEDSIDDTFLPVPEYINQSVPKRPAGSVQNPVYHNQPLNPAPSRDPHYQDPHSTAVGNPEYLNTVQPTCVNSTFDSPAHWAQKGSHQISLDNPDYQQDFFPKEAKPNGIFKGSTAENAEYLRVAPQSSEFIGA
Measurement kind: IC50 (nM)
A number alone suffices; assume nM.

Could you share which IC50 value was measured for CN1CCC(NC(=O)c2sc3ncnc4c3c2NC(=O)N4c2ccc3c(cnn3Cc3cccc(F)c3)c2)CC1 [Cpd 177] ?
75

# repeat for O=C(Nc1ccc(CCN2CCCCC2)cc1)c1sc2ncnc3c2c1NC(=O)N3c1cccc2ccoc12 [Cpd 251]
141

Try O=C(NCCN1CCOCC1)c1sc2ncnc3c2c1NC(=O)N3c1ccc(Oc2ccccc2)cc1 [Cpd 105] next.
110

// query: O=C(NCCCN1CCOCC1)c1sc2ncnc3c2c1NC(=O)N3c1ccc2c(ccn2Cc2cccc(F)c2)c1 [Cpd 95]
69

And the next one, COc1ccc(N2C(=O)Nc3c(C(=O)Nc4ccc(CN5CCOCC5)cc4)sc4ncnc2c34)c(F)c1 [Cpd 65] ?
120

Please answer likewise for CN1CCN(Cc2ccc(NC(=O)c3sc4ncnc5c4c3NC(=O)N5c3ccc(OCc4cccc(F)c4)c(Cl)c3)cc2)CC1 [Cpd 252]
161

###

Could you please report measured pIC50 for the items listed next?
biological target: EGFR (Homo sapiens, UniProt P00533); construct: The intracellular portion of EGFR started at nucleotide 2189 (corresponding to amino acid 667) and ended at the termination codon; test: EGFR Kinase Assay; details: GST-EGFR, ATP 5 μM
Please report pIC50 as the negative decimal logarithm of the molar concentration, giving only the number.

Dear colleague, I am looking for the recorded pIC50 of the following molecule: `O=C(Nc1ccc(CN2CCOCC2)cc1)c1sc2ncnc3c2c1NC(=O)N3c1ccc(Oc2ccccc2)c(Br)c1`
6.92

// query: `O=C(Nc1ccc(CN2CCCCC2)cc1)c1sc2ncnc3c2c1NC(=O)N3c1ccc(Oc2ccccc2)c(Br)c1`
7.31

Field entry: `COc1cc(NC(=O)c2sc3ncnc4c3c2NC(=O)N4c2ccc(Oc3ccccc3)c(Br)c2)ccc1CN1CCOCC1`
7.08

What do we get for `O=C(Nc1ccc(CN2CCCCC2)cc1)c1sc2ncnc3c2c1NC(=O)N3c1ccc(Oc2cccc(F)c2)cc1` ?
8.00

For COc1cc(NC(=O)c2sc3ncnc4c3c2NC(=O)N4c2cc(OC)c(OC)c(OC)c2)ccc1OCC1CCCCO1 (centres unmarked) then?
4.37

// same read-out, input: `COc1cc(NC(=O)c2sc3ncnc4c3c2NC(=O)N4c2ccc(F)c(Cl)c2)ccc1O`
7.37

Check `COc1cc(N2C(=O)Nc3c(C(=O)Nc4ccc(CN5CCCCC5)cc4)sc4ncnc2c34)ccc1Br` too.
6.30

Then `COc1cc(N2C(=O)Nc3c(C(=O)Nc4ccc(CN5CCOCC5)cc4)sc4ncnc2c34)ccc1Br` ?
6.11

Thanks! And `COc1ccc(N2C(=O)Nc3c(C(=O)Nc4ccc(CN5CCOCC5)cc4)sc4ncnc2c34)cc1Cl` ?
6.65

Now the same for `COc1ccc(N2C(=O)Nc3c(C(=O)Nc4ccc(CN5CCOCC5)c(OC)c4)sc4ncnc2c34)cc1Br`
6.38

Same for `O=C(Nc1ccc(CN2CCOCC2)cc1)c1sc2ncnc3c2c1NC(=O)N3c1c(Cl)ccc2c1OCO2`
6.45

One more molecule: `CN1CCC(NC(=O)c2sc3ncnc4c3c2NC(=O)N4c2ccc(Sc3ccccc3)cc2)CC1`
7.74

Same for `O=C(Nc1ccc(CN2CCOCC2)cc1)c1sc2ncnc3c2c1NC(=O)N3c1ccc(F)c(Br)c1`
6.80

Thanks! And `O=C(Nc1ccc(CN2CCOCC2)cc1)c1sc2ncnc3c2c1NC(=O)N3c1ccc(OCc2ccccn2)c(Br)c1` ?
7.02

Subsequent entry: `O=C(Nc1ccc(CN2CCCC2)cc1)c1sc2ncnc3c2c1NC(=O)N3c1ccc(F)c(Cl)c1`
8.15

Further, for `O=C(Nc1ccc(CN2CCOCC2)cc1)c1sc2ncnc3c2c1NC(=O)N3c1ccc(Oc2ccc(F)cc2)cc1` ?
7.47

Another: `COc1cc(NC(=O)c2sc3ncnc4c3c2NC(=O)N4c2ccc(OCc3ccco3)c(Cl)c2)ccc1CN1CCOCC1`
7.66
